- test.target: N-type calcium channel (NTCC) (Homo sapiens, UniProt Q00975)
- Sequence (Q00975 whole entry): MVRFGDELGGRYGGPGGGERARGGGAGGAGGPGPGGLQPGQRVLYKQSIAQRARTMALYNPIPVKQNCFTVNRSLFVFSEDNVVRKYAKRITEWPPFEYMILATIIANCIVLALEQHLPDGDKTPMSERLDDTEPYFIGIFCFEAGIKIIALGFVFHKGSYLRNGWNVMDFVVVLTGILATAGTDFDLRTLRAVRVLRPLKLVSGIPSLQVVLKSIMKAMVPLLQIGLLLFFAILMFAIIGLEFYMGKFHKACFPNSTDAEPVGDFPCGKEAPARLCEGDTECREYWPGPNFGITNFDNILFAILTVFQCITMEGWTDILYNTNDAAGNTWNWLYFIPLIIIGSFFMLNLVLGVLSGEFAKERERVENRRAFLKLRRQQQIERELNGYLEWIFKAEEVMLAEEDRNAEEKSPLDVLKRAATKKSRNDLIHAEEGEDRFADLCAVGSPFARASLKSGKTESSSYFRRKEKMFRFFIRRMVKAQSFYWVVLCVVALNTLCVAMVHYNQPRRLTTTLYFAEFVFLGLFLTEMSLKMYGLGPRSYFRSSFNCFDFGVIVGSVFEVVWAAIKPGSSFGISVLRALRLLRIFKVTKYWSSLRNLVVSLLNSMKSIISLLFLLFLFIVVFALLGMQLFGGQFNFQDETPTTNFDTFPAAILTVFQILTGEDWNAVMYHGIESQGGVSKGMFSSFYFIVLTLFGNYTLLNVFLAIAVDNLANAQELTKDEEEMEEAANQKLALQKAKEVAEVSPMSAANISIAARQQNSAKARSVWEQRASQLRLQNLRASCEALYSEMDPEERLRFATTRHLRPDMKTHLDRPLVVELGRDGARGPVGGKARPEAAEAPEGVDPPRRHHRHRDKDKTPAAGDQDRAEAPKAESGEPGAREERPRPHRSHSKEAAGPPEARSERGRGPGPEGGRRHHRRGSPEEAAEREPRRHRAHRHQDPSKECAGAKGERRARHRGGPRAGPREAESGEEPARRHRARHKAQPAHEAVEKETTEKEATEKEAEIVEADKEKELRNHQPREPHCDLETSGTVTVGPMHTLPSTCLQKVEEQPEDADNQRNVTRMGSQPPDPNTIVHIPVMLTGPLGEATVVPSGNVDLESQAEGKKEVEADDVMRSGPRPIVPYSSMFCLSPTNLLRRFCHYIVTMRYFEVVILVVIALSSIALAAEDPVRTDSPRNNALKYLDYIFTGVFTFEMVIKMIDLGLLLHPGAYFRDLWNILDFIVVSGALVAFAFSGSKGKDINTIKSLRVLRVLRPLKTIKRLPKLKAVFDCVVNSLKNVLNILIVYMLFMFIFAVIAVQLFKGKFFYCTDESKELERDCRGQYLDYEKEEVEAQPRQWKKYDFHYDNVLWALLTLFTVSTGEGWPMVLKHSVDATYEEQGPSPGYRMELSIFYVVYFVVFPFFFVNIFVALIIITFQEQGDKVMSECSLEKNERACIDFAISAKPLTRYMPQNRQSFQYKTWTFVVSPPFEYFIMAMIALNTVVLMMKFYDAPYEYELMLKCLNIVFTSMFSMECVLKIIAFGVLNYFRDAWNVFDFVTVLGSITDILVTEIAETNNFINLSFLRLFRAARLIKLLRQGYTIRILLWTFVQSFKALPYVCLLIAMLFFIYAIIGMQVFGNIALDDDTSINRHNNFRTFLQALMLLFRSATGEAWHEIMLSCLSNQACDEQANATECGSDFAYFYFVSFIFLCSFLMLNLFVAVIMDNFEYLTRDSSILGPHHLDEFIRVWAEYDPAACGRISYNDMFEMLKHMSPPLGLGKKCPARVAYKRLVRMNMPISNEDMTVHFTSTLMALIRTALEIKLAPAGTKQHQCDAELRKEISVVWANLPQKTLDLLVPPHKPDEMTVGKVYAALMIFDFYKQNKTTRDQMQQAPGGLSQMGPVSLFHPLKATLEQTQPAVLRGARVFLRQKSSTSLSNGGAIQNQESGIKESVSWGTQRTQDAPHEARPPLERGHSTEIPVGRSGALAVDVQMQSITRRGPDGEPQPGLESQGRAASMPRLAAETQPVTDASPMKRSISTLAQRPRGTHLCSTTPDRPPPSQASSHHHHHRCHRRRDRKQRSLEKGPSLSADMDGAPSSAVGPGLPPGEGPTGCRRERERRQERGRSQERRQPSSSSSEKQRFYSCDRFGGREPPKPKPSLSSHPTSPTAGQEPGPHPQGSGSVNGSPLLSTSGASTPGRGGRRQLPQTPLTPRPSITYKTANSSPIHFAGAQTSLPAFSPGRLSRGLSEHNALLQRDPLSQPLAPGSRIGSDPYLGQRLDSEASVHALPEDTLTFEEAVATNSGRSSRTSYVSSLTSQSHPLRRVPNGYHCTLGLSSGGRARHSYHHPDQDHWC
- Sequence (P54289 25-956 partner limits assumed): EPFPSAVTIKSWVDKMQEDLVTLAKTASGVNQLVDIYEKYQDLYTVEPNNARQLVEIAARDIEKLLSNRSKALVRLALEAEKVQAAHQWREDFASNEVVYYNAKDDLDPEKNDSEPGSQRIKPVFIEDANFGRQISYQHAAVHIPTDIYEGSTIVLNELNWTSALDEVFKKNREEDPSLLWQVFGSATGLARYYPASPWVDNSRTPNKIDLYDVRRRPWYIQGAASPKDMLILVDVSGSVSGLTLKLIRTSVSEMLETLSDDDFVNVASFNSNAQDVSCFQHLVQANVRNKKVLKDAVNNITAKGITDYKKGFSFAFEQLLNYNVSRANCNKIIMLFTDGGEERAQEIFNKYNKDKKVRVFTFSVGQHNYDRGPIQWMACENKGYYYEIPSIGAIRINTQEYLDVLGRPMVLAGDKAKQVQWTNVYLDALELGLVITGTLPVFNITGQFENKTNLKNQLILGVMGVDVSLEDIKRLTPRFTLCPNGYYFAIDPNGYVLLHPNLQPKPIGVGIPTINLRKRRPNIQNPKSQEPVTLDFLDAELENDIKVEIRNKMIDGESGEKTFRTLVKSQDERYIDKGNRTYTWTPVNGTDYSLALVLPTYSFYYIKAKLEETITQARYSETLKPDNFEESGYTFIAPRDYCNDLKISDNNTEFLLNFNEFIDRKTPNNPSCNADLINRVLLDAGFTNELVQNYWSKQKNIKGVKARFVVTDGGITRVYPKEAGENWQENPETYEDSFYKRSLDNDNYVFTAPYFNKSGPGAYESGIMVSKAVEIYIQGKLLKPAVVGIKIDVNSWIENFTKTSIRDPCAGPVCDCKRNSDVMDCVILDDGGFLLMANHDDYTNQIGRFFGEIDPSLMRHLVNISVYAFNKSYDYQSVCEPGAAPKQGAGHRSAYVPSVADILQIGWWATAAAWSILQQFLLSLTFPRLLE
- Sequence (P54289 957-1103 partner limits assumed): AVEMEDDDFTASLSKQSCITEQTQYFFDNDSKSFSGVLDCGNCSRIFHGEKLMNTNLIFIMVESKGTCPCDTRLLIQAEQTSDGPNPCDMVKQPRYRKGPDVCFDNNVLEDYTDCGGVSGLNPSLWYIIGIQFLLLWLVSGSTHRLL
- Sequence (P54284 whole entry partner): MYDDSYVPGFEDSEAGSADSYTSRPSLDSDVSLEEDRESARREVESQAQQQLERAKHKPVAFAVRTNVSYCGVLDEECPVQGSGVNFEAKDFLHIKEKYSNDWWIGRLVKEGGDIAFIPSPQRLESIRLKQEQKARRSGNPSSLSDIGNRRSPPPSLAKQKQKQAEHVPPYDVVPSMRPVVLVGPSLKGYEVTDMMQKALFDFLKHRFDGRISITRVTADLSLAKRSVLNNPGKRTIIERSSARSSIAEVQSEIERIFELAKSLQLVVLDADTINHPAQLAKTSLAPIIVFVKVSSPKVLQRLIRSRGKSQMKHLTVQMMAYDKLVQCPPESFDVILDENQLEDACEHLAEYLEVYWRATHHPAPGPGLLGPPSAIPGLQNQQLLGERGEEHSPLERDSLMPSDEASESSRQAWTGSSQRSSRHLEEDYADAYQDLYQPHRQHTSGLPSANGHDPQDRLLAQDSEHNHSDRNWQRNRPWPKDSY
- experiment: FLIPR calcium mobilization assay for N-type calcium channel
- condition.details: calcium mobilization in vitro assay; differentiated IMR32 cells
metric.name: pIC50
Quick note: pIC50 values are minus log10 of concentrations in mol/L.

O=C(CN1CCC(N(C2CC2)S(=O)(=O)c2cccc(C(F)(F)F)c2)CC1)Nc1cc(Cl)cc(Cl)c1 : 6.07
CC(C)NC(=O)C(=O)N1CCC(N(C2CC2)S(=O)(=O)c2cccc(C(F)(F)F)c2)CC1 : 5.49
O=C(CN1CCC(N(C2CC2)S(=O)(=O)c2cccc(Cl)c2)CC1)Nc1ccc(F)cc1 : 6.08
O=C(CN1CCC(N(C2CC2)S(=O)(=O)c2cccc(C(F)(F)F)c2)CC1)Nc1cc(C(F)(F)F)cc(C(F)(F)F)c1 : 6.18
CC(C)N(C1CCN(C(=O)CCNc2ccc(C#N)cc2)CC1)S(=O)(=O)c1cccc(C(F)(F)F)c1 : 5.86
O=C(CN1CCC(N(C2CC2)S(=O)(=O)c2ccccc2)CC1)Nc1ccc(F)cc1 : 5.65
O=C(CN1CCC(N(C2CC2)S(=O)(=O)c2ccc(Cl)cc2)CC1)Nc1cc(C(F)(F)F)cc(C(F)(F)F)c1 : 5.38

Then this compound:
[in] pIC50 for `COc1cccc(NCCC(=O)N2CCC(N(C(C)C)S(=O)(=O)c3cccc(C(F)(F)F)c3)CC2)c1` ?
[out] 6.38
